experimental-target: Alpha-1D adrenergic receptor (Homo sapiens)
Sequence (P25100 whole entry): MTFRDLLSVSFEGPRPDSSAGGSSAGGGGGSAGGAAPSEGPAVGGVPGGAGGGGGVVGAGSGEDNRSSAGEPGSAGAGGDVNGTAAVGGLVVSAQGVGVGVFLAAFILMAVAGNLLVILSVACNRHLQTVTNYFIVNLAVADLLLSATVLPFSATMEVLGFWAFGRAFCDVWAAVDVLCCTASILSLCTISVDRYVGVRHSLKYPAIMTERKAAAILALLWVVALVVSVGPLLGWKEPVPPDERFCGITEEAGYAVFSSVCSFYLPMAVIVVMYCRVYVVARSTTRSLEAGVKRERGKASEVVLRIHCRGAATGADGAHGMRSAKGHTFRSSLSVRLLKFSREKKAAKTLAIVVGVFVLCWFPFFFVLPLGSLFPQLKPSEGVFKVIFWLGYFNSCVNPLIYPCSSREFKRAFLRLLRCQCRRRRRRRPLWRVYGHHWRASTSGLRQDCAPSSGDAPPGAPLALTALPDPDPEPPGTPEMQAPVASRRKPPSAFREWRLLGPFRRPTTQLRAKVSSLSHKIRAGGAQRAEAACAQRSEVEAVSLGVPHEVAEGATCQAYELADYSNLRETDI
measurement-name: Ki (µM)

                                    compound  result_number
 0  Cc1ccc(C(C(=O)NCCCN2CCC(C#N)(c3ccccc3C)CC2)c2ccc(C)cc2)cc1            1.1
 1  COC(=O)C1(c2ccccc2)CCN(CCCNC(=O)C2=C(C)N=C(C)/C(=C(/O)OC)C2c2ccc([N+](=O)[O-])cc2)CC1 (racemic)            1.1
 2  Cc1ccccc1C1(C#N)CCN(CCCNC(=O)C(c2ccc(F)c(F)c2)C(C)C)CC1 (single isomer, unassigned; (-))            2.6
 3  Cc1ccc(C(C(=O)NCCCN2CCC(C#N)(c3ccccc3C)CC2)C(C)C)cc1 (stereo not given)            1.1
 4  Cc1ccc(C(C(=O)NCCCN2CCC(C#N)(c3ccccc3Cl)CC2)c2ccc(C)cc2)cc1            0.6
 5  Cc1ccc(C(C(=O)NCCCN2CCC(C#N)(c3ccccc3)CC2)c2ccc(C)cc2)cc1            1.4
 6  CC(C)C(C(=O)NCCCN1CCC(C#N)(c2ccccc2)CC1)c1ccccc1 (racemic)            2.9
 7  Cc1ccc(C(C(=O)NCCCN2CCC(C#N)(c3ccccc3C(F)(F)F)CC2)c2ccc(C)cc2)cc1            3.2
 8  Cc1ccccc1C1(C#N)CCN(CCCNC(=O)C(c2ccc(Cl)cc2)C(C)C)CC1 (stereo not given)            1.3
 9  N#CC1(c2ccccc2)CCN(CCCNC(=O)C(c2ccccc2)C2CCCC2)CC1 (racemic)            2.3
10  Cc1ccc(C(C(=O)NCCCN2CCC(c3ccccc3)CC2)c2ccc(C)cc2)cc1           0.23
11  Cc1ccc(C(C(=O)NCCCN2CCC(C(N)=O)(c3ccccc3)CC2)c2ccc(C)cc2)cc1            3.3
12  N#CC1(c2ccccc2)CCN(CCCNC(=O)C(c2ccccc2)c2ccccc2)CC1            3.3
13  COC(=O)C1(c2ccccc2)CCN(CCNC(=O)CCc2ccc([N+](=O)[O-])cc2)CC1            1.5
14  Cc1ccccc1C1(C#N)CCN(CCCNC(=O)C(c2cccc(F)c2)C(C)C)CC1 (stereo not given)            2.7
